System: NCI-H1355;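 also: growth inhibition of human NCI-H1355 cells, read out by a cell viability assay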
PROTOCOL_DETAILS: cells
Assay type: functional, cell-based
RUN_CONDITIONS: Homo sapiens
Description: SANGER: Inhibition of human NCI-H1355 cell growth in a cell viability assay.
Would you mind telling me the reported pIC50 of each entry?
Answers are plain numbers, as −log10 of the molar value.

Examples with their reported pIC50 follow.
>>> recorded_value("Fc1cc(-c2cc[nH]/c(=N/c3ccc(-n4cnc(N5CCOCC5)n4)cc3)n2)cc(N2CCOCC2)c1")
6.06
>>> recorded_value("COc1cc(C)c(Sc2cnc(NC(=O)c3ccc(CNC(C)C(C)(C)C)cc3)s2)cc1C(=O)N1CCN(C(C)=O)CC1 (centres undefined)")
5.21
>>> recorded_value("CC[C@@]1(O)C(=O)OCc2c1cc1n(c2=O)Cc2cc3ccccc3nc2-1")
7.18
>>> recorded_value("CC(C)=CC[C@@H](O)C1=CC(=O)c2c(O)ccc(O)c2C1=O")
5.55

Okay, next one:
Lab note: Cc1n[nH]c2ccc(-c3cncc(OC[C@@H](N)Cc4c[nH]c5ccccc45)c3)cc12 gave pIC50 of 6.95

----------
System: BC-3;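 also: cell viability assay measuring growth inhibition of human BC-3 cells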
PROTOCOL_DETAILS: cells
Type: functional, cell-based
RUN_CONDITIONS: Homo sapiens
Description: SANGER: Inhibition of human BC-3 cell growth in a cell viability assay.
ATTRIBUTE_MEASURED: IC50

Examples with their reported IC50 follow.
>>> recorded_value("CCn1c(-c2nonc2N)nc2cnc(Oc3cccc(NC(=O)c4ccc(OCCN5CCOCC5)cc4)c3)cc21 [GSK-269962A]")
"> 2.5 µM"
>>> recorded_value("N#C/C(=C1/Nc2ccccc2S1)c1ccnc(NCCc2cccnc2)n1")
"7.46 µM"
>>> recorded_value("CCNc1cc(N[C@H]2CC[C@@H](O)CC2)nc(Nc2ccc3c(ccn3Cc3ccccc3)c2)n1")
"> 5.12 µM"
>>> recorded_value("CC(C)=CC[C@@H](O)C1=CC(=O)c2c(O)ccc(O)c2C1=O [SHIKONIN]")
"0.926 µM"
>>> recorded_value("Cc1nc(Nc2ncc(C(=O)Nc3c(C)cccc3Cl)s2)cc(N2CCN(CCO)CC2)n1 [DASATINIB]")
"> 1.28 µM"

Okay, next one:
Lab note: C/C(O)=C(\C#N)C(=O)Nc1cc(Br)ccc1Br gave IC50 of > 16 µM

----------
Test system: HCC1569;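 also: growth inhibition of human HCC1569 cells, read out with a cell viability assay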
PROTOCOL_DETAILS: cells
Format: functional, cell-based
RUN_CONDITIONS: Homo sapiens
Description: SANGER: Inhibition of human HCC1569 cell growth in a cell viability assay.
ATTRIBUTE_MEASURED: IC50

>>> recorded_value("CCNC(=O)c1noc(-c2cc(C(C)C)c(O)cc2O)c1-c1ccc(CN2CCOCC2)cc1 [LUMINESPIB]")
"36.1 nM"

# map each compound to its IC50
1. Cn1cc(/C=C2\C(=O)Nc3cccnc32)c2ccccc21
2. Cn1c(=O)n(-c2ccc(C(C)(C)C#N)cc2)c2c3cc(-c4cnc5ccccc5c4)ccc3ncc21 [DACTOLISIB]

Reply |
1. > 2000 nM
2. 276 nM

----------
System: CESS
PROTOCOL_DETAILS: SANGER: Inhibition of human CESS cell growth in a cell viability assay.
Assay type: functional, cell-based
pIC50: −log10 of the molar value.
ATTRIBUTE_MEASURED: pIC50

Examples with their reported pIC50 follow.
>>> recorded_value("CCNc1cc(N[C@H]2CC[C@@H](O)CC2)nc(Nc2ccc3c(ccn3Cc3ccccc3)c2)n1")
"< 5.29"
>>> recorded_value("CCn1c(-c2nonc2N)nc2cnc(Oc3cccc(NC(=O)c4ccc(OCCN5CCOCC5)cc4)c3)cc21 [GSK-269962A]")
"< 5.60"
>>> recorded_value("Cc1[nH]c(/C=C2\\C(=O)Nc3ccc(S(=O)(=O)Cc4c(Cl)cccc4Cl)cc32)c(C)c1C(=O)N1CCC[C@@H]1CN1CCCC1 [PHA-665752]")
"< 5.70"

# map each molecule to its pIC50
1. O=c1[nH]c2ccccc2n1C1CCN(Cc2ccc(-c3nc4cc5[nH]cnc5cc4nc3-c3ccccc3)cc2)CC1
2. COc1cc(C)c(Sc2cnc(NC(=O)c3ccc(CNC(C)C(C)(C)C)cc3)s2)cc1C(=O)N1CCN(C(C)=O)CC1 (stereo not given)

Reply |
< 5.59
< 4.99

The values you see were collected from ChEMBL document CHEMBL1201861.
